- target_or_test_system: Histone deacetylase 1 (Homo sapiens)
- Sequence (Q13547 whole entry): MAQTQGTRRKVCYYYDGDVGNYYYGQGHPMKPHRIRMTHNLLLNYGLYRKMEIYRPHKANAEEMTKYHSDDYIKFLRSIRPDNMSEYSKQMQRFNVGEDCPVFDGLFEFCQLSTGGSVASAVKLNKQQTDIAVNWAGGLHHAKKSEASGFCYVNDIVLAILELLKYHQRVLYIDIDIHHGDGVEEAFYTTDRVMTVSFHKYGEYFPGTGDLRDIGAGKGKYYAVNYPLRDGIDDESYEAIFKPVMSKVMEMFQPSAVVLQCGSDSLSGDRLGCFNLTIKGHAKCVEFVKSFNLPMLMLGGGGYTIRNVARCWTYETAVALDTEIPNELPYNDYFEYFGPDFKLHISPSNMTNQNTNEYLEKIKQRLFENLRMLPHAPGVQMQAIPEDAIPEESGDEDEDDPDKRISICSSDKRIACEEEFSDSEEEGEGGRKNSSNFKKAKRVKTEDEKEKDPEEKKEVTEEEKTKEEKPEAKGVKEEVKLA
pIC50: −log10 of the molar value.
experimental_endpoint: pIC50

In [3]: df
Out[3]:
                              smiles_string  numeric_readout
0  O=C(NO)[C@@H](Cc1ccccc1)n1nnc(-c2ccccc2)c1C#CC1CC1             5.37
1   COc1ccc(/C=C/C(=O)NO)c(-c2ccc(Br)cc2)c1             5.35

----------
- target_or_test_system: Macrophage metalloelastase (Homo sapiens)
- Sequence (P39900 whole entry): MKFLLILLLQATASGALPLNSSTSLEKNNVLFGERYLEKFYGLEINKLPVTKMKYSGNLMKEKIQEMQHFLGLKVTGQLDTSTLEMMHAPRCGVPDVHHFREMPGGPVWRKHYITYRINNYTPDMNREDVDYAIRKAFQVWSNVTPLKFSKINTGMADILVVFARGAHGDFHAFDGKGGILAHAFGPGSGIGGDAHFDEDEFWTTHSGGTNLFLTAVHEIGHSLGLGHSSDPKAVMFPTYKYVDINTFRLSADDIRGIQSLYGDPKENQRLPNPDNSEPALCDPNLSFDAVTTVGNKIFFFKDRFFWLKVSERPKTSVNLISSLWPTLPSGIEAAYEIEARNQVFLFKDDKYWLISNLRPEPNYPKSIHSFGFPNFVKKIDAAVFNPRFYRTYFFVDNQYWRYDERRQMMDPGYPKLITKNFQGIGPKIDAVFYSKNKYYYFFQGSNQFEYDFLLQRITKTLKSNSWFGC
experimental_endpoint: pIC50
FYI, pIC50 means -log10 of a concentration in mol per litre.

Write down the reported pIC50 of O=C(O)CC[C@H](NC(=O)Cc1ccc(Br)cc1)C(=O)NCc1ccc([N+](=O)[O-])cc1 , test system: Macrophage metalloelastase (Homo sapiens). 3.86
